# Tested on: U-937 human histocytic lymphoma
# Method description: In vitro inhibition rate to tumor cells (MTT), U-937
# Format: cell-based
# Test conditions: Homo sapiens, U-937, 50 μg/ml; Table 2 (repeated screening); read-out: inhibition rate, Results (%) U-937
Readout type: inhibition at 50 µg/mL
The answer consists of two parts: a number and, after it, its unit.

Consider the following illustrative entries.
Compound	Assay result
C=C1CC2(O)OC3(CC2C(C)C)C(C)CCC13 (centres unmarked) [Curcumol E, Curcumol, reference compound]	14.3%
CC(C)C1CC23OC1(O)CC(=CBr)C2CCC3C (centres unmarked) [Compound 17, Curcumol monobromide]	85.1%
C=C1CC2(OC(=O)CCC)OC3(CC2C(C)C)C(C)CCC13 (centres unmarked) [Compound 2, Curcumol butyrate]	70.3%
C=C1CC2(OC)OC3(CC2C(C)C)C(C)CCC13 (centres unmarked) [Compound 25, Curcumol methyl ether]	82.4%

Continue with the compound presented below.
// lookup inhibition at 50 µg/mL for CC(C)C1CC23OC1(O)CC(O)(CO)C2CCC3C (centres unmarked) [Compound 32, Curcumol dihydroxy compound] 67.2%

These entries and their values trace back to patent US7700584B2.
